Read-out: Low-density lipoprotein receptor (LDLR), LDLR (gene 3949)
Assay: BSK_CASM3C_LDLR: BioMAP Diversity Plus: CASM3C Assay for Low-density lipoprotein receptor (LDLR) Biomarker Activity (AID 2283045);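 also: LDLR protein level on the cell surface quantified by ELISA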
Settings: primary human coronary artery smooth muscle cells; actives raise or lower the signal
Calls of active or inactive are those of the source. The calls were made as follows: active = hit-call score of the fitted dose curve at least 0.9, where 1 is the maximum; inactive = score below 0.9.
Labels: true (1) (active), false (0) (inactive)

# COMPOUND, DISCRETE_LABEL
data = [
    ("C1CCC(SSC2CCCCC2)CC1", "false (0)"),
    ("CNC(=O)[C@H]1O[C@@H](n2cnc3c(NCc4cc(Cl)ccc4OCc4cc(C)no4)ncnc32)[C@H](O)[C@@H]1N", "false (0)"),
    ("CC(=O)OC/C=C(\\C)CCC=C(C)C", "false (0)"),
    ("COCCOC[C@H](CC1(C(=O)NC2CCC(C(=O)O)CC2)CCCC1)C(=O)Oc1ccc2c(c1)CCC2 (stereo partly drawn)", "false (0)"),
    ("O=c1c(O)c(-c2ccc(O)c(O)c2)oc2cc(O)cc(O)c12", "true (1)"),
    ("FC(F)(F)C(F)(F)C(F)(F)C(F)(F)C(F)(F)C(F)(F)CCI", "false (0)"),
    ("NS(=O)(=O)c1cc2c(cc1Cl)NCNS2(=O)=O", "false (0)"),
    ("COc1ccc2c(c1)c(CC(=O)O)c(C)n2C(=O)c1ccc(Cl)cc1", "false (0)"),
]
